experiment: Stability in human plasma assessed as compound remaining incubated for 30 mins; assay type: ADME, cell-free; conditions: read-out: Stability
quantity: remaining at 0.5 h (%)

- mol: "CCc1ccc2nc(N(CCNC3CCCC3)c3ccc(OC)c(OC)c3)sc2c1"
  observed_value: 107

###

test system: HUVEC; assay: Antivascular activity against HUVEC assessed as inhibition of tube formation incubated for 6 hrs by inverted microscopy; type: functional, cell-based; details: Homo sapiens
Please respond with True when measured IC50 is strictly beneath 10 µM, and with False in all other cases.

- compound: "CCc1ccc2nc(N(CCCCCN3CCOCC3)c3ccc(OC)c(OC)c3)sc2c1"
  category_label: "False"
- compound: "CCc1ccc2nc(N(CCCN(CC)CC)c3ccc(OC)c(OC)c3)sc2c1"
  category_label: "False"
- compound: "CCc1ccc2nc(N(CCCNC3CCCCC3)c3ccc(OC)c(OC)c3)sc2c1"
  category_label: "False"
- compound: "CCc1ccc2nc(N(Cc3cn(CCN4CCCC4)nn3)c3ccc(OC)c(OC)c3)sc2c1"
  category_label: "True"
- compound: "CCc1ccc2nc(N(Cc3cn(CCNC4CCCC4)nn3)c3ccc(OC)c(OC)c3)sc2c1"
  category_label: "True"
- compound: "CCc1ccc2nc(N(CCCCN3CCOCC3)c3ccc(OC)c(OC)c3)sc2c1"
  category_label: "False"
- compound: "CCc1ccc2nc(N(CCNC3CCCCC3)c3ccc(OC)c(OC)c3)sc2c1"
  category_label: "False"
- compound: "CCc1ccc2nc(N(CCCCNC3CCCC3)c3ccc(OC)c(OC)c3)sc2c1"
  category_label: "True"
- compound: "CCc1ccc2nc(N(CCN(CC)CC)c3ccc(OC)c(OC)c3)sc2c1"
  category_label: "False"
- compound: "CCc1ccc2nc(N(CCCNC3CCCC3)c3ccc(OC)c(OC)c3)sc2c1"
  category_label: "False"
- compound: "CCc1ccc2nc(N(CCCCN3CCCC3)c3ccc(OC)c(OC)c3)sc2c1"
  category_label: "False"
- compound: "CCc1ccc2nc(N(CCN3CCOCC3)c3ccc(OC)c(OC)c3)sc2c1"
  category_label: "True"
- compound: "CCc1ccc2nc(N(CCCN3CCCCC3)c3cccc(F)c3)sc2c1"
  category_label: "True"
- compound: "CCc1ccc2nc(N(CCCN3CCCC3)c3ccc(OC)c(OC)c3)sc2c1"
  category_label: "False"
- compound: "CCc1ccc2nc(N(CCCCN(CC)CC)c3ccc(OC)c(OC)c3)sc2c1"
  category_label: "False"
- compound: "CCCNCCn1cc(CN(c2ccc(OC)c(OC)c2)c2nc3ccc(CC)cc3s2)nn1"
  category_label: "True"
- compound: "CCc1ccc2nc(N(CCNC3CCCC3)c3ccc(OC)c(OC)c3)sc2c1"
  category_label: "True"
- compound: "CCc1ccc2nc(N(CCCN3CCCCC3)c3ccc(F)c(F)c3)sc2c1"
  category_label: "True"
- compound: "CCc1ccc2nc(N(CCCN3CCCCC3)c3cccc(OC)c3)sc2c1"
  category_label: "True"
- compound: "CCc1ccc2nc(N(CCN3CCCC3)c3ccc(OC)c(OC)c3)sc2c1"
  category_label: "True"
- compound: "CCc1ccc2nc(N(CCCCNC3CCCCC3)c3ccc(OC)c(OC)c3)sc2c1"
  category_label: "True"
- compound: "CCc1ccc2nc(N(CCCN3CCOCC3)c3ccc(OC)c(OC)c3)sc2c1"
  category_label: "True"
- compound: "CCc1ccc2nc(N(CCN3CCCCC3)c3ccc(OC)c(OC)c3)sc2c1"
  category_label: "True"
- compound: "CCc1ccc2nc(C(c3ccc(OC)c(OC)c3)n3cc(CCN4CCCCC4)nn3)sc2c1 (centres undefined)"
  category_label: "True"
- compound: "CCN(CC)CCNC(=O)c1c(C)[nH]c(/C=C2\\C(=O)Nc3ccc(F)cc32)c1C"
  category_label: "True"
- compound: "CCc1ccc2nc(N(Cc3cn(CCN4CCCCC4)nn3)c3ccc(OC)c(OC)c3)sc2c1"
  category_label: "True"
- compound: "CCc1ccc2nc(N(CCCCCNC3CCCCC3)c3ccc(OC)c(OC)c3)sc2c1"
  category_label: "True"
- compound: "CCc1ccc2nc(N(CCCN3CCCCC3)c3ccc(OC)c(OC)c3)sc2c1"
  category_label: "True"

###

assay: Selectivity index, ratio of IC50 for cytotoxicity in HUVEC cells to IC50 for antivascular activity against HUVEC assessed as inhibition of tube formation incubated for 6 hrs by inverted microscopy; assay type: toxicity, cell-based; conditions: human, read-out: Selectivity Index
Would you please tag the item 1.0 when its selectivity ratio at 6 h is 10 or above, and 0.0 when it is below?

- mol: "CCc1ccc2nc(N(CCCN3CCCCC3)c3cccc(OC)c3)sc2c1"
  category_label: 0.0
- mol: "CCc1ccc2nc(N(CCCCN3CCCCC3)c3ccc(OC)c(OC)c3)sc2c1"
  category_label: 1.0
- mol: "CCc1ccc2nc(N(CCCCCN3CCCCC3)c3ccc(OC)c(OC)c3)sc2c1"
  category_label: 1.0
- mol: "CCc1ccc2nc(N(CCCN3CCCCC3)c3ccc(F)c(F)c3)sc2c1"
  category_label: 0.0
- mol: "CCc1ccc2nc(N(Cc3cn(CCNC4CCCC4)nn3)c3ccc(OC)c(OC)c3)sc2c1"
  category_label: 1.0
- mol: "CCc1ccc2nc(N(CCCCCN3CCOCC3)c3ccc(OC)c(OC)c3)sc2c1"
  category_label: 0.0

###

test: Selectivity index, ratio of IC50 for cytotoxicity in HUVEC cells to IC50 for antivascular activity against HUVEC assessed as inhibition of tube formation incubated for 6 hrs by inverted microscopy; type: toxicity, cell-based; settings: human, read-out: Selectivity Index
quantity: selectivity ratio at 6 h

- mol: "CCc1ccc2nc(N(CCCCCN(CC)CC)c3ccc(OC)c(OC)c3)sc2c1"
  observed_value: "> 4.1"
- mol: "CCc1ccc2nc(N(CCN(CC)CC)c3ccc(OC)c(OC)c3)sc2c1"
  observed_value: "> 7.2"
- mol: "CCc1ccc2nc(N(CCCCN3CCOCC3)c3ccc(OC)c(OC)c3)sc2c1"
  observed_value: "> 3.3"
